Exercise: for every item that follows, state its recorded koff.
Biological target: T1, biotinylated Aβ1-40 peptide (biotinylated (N-biotinylated in Example 7))
T1 construct: captured on streptavidin (SA) chip; also called Biotinylated Aβ peptide 1-40; Aβ1-40 on SA chip
T1 sequence (peptide, as listed by the source): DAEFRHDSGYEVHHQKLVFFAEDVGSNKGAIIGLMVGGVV
Assay: SPR, Fab over Aβ1-40 on SA chip
Numbers only, in s⁻¹.

- binder: "9TL variant M23 Fab (Fab, V domains shown, Fab; human IgG2 CH1 and kappa CL) VH: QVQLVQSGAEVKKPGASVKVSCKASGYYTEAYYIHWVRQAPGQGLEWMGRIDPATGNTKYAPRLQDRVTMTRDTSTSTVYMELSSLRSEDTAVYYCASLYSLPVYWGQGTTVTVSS VL: DVVMTQSPLSLPVTLGQPASISCKSSQSLLYSDAKTYLNWFQQRPGQSPRRLIYQISRLDPGVPDRFSGSGSGTDFTLKISRVEAEDVGVYYCLQGTHYPKLFGQGTRLEIKR"
  koff / s⁻¹: 0.005
- binder: "9TL variant M29 Fab (Fab, V domains shown, Fab; human IgG2 CH1 and kappa CL) VH: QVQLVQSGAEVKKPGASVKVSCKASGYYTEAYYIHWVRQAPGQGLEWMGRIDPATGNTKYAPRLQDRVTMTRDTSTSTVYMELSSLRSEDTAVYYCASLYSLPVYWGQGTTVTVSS VL: DVVMTQSPLSLPVTLGQPASISCKSSQSLLYSDAKTYLNWFQQRPGQSPRRLIYQISRLDPGVPDRFSGSGSGTDFTLKISRVEAEDVGVYYCLQGTHYPVSFGQGTRLEIKR"
  koff / s⁻¹: 0.00076

Query: Look up koff for this binder: 9TL variant M43 Fab (Fab, V domains shown, Fab; human IgG2 CH1 and kappa CL) VH: QVQLVQSGAEVKKPGASVKVSCKASGYYTEAYYIHWVRQAPGQGLEWMGRIDPATGNTKYAPRLQDRVTMTRDTSTSTVYMELSSLRSEDTAVYYCASLYSLPIYWGQGTTVTVSS VL: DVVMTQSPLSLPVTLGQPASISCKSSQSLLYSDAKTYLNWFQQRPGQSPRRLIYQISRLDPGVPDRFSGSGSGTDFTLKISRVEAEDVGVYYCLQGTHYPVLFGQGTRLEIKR
Result: 0.0003

src = patent US20090022728A1
